- target.desc: EBP (Homo sapiens, UniProt Q15125)
- Construct: HEK293T cells were utilized as the source of EBP enzyme; endogenous in cells; host or cells: HEK293T
- Sequence (Q15125 whole entry): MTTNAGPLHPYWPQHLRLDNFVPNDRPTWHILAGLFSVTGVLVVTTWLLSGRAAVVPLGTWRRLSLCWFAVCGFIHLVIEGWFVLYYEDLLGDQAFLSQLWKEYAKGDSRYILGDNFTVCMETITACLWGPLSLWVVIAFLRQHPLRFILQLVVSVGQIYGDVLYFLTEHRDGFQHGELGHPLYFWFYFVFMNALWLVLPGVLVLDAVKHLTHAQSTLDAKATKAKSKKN
- protocol: EBP Functional Assay (EBP immunoaffinity LC-MS assay)
- Assay type: biochemical
measurement.name: IC50

# compound, target.desc, IC50
measured = [
    ("O=S(=O)(c1ccc(F)cc1F)N1CC2(CCC(N3CCOCC3)C2)C1 (centres unmarked) [Example 46]", "EBP (Homo sapiens, UniProt Q15125)", "500 to 3000 nM"),
    ("O=S(=O)(c1ccc(OC(F)F)cc1)N1CC2(CCC(N3CCOCC3)C2)C1 (centres unmarked) [Example 44]", "EBP (Homo sapiens, UniProt Q15125)", "500 to 3000 nM"),
    ("Cc1cc(S(=O)(=O)N2CC3(CC(N4CCC(C)CC4)CO3)C2)n(C)n1 (centres unmarked) [Example 55]", "EBP (Homo sapiens, UniProt Q15125)", "100 to 500 nM"),
    ("Cc1ccc(S(=O)(=O)N2CC3(CCC(N4CCOCC4)C3)C2)c(C)c1 (centres unmarked) [Example 45]", "EBP (Homo sapiens, UniProt Q15125)", "< 100 nM"),
]

Alright, here's another compound for you.
For reference, reported IC50 for Cc1nn(C)c(S(=O)(=O)N2CC3(CCC(N4CCOCC4)C3)C2)c1C(F)F (centres unmarked) [Example 38] stands at 100 to 500 nM

###

- target.desc: EBP (Homo sapiens)
- Construct: HEK293T cells were utilized as the source of EBP enzyme; endogenous in cells; host or cells: HEK293T
- protocol: EBP Functional Assay (EBP immunoaffinity LC-MS assay)
- Assay type: biochemical
- reported.conditions: HEK293T cells as source of EBP enzyme; zymosterol-d5 substrate; inhibitor 30 min, then 37 °C for 4 h; percent conversion to dehydrolathosterol-d5 by LC-APCI MRM MS; read-out: EBP Functional Assay
pIC50: −log10 of the molar value.
measurement.name: pIC50

In the examples that follow, each entry is paired with its recorded pIC50.
# molecule, pIC50
rows = [
    ("Cc1nc(C(F)(F)F)ccc1S(=O)(=O)N1CC2(CC[C@@H](N3CCOCC3)C2)C1 (single isomer, unassigned)", "> 7.00"),
    ("Cc1cc(S(=O)(=O)N2CC3(CC[C@@H](N4CCOCC4)C3)C2)n(C)n1 (single isomer, unassigned)", "6.30 to 7.00"),
    ("CC1CCN(C2COC3(C2)CN(S(=O)(=O)c2ccc(OC(F)F)cc2)C3)CC1 (stereo not shown)", "6.30 to 7.00"),
]

For reference, reported pIC50 for Cc1nc(C(C)(F)F)ccc1S(=O)(=O)N1CC2(CC(N(C)CC3CCOCC3)C2)C1 stands at 6.30 to 7.00

###

- target.desc: EBP (Homo sapiens)
- Construct: HEK293T cells were utilized as the source of EBP enzyme; endogenous in cells; host or cells: HEK293T
- protocol: EBP Functional Assay (EBP immunoaffinity LC-MS assay)
- Assay type: biochemical
Overview of recorded IC50 for various compounds

In the examples that follow, each entry is paired with its recorded IC50.
# compound, target.desc, IC50
rows = [
    ("COc1ccc(S(=O)(=O)N2CC3(CC(N4CCC(C)CC4)CO3)C2)c(C)n1 (stereo not shown)", "EBP (Homo sapiens)", "< 100 nM"),
    ("Cc1nc(Cl)ccc1S(=O)(=O)N1CC2(CCC(N3CCOCC3)C2)C1 (stereo not shown)", "EBP (Homo sapiens)", "< 100 nM"),
    ("COc1ccc(S(=O)(=O)N2CC3(CCC(N4CCOCC4)C3)C2)c(C)n1 (stereo not shown)", "EBP (Homo sapiens)", "< 100 nM"),
]

Alright, here's another compound for you.
For reference, reported IC50 for Cn1nc(C(F)(F)F)cc1S(=O)(=O)N1CC2(CC(N3CC4(CCO4)C3)C2)C1 stands at 500 to 3000 nM
